Biological target: T1, recombinant E1/E2 heterodimer protein (genotype 1a) (hepatitis C virus genotype 1a, UniProt P26664 192-383; P26664 384-746, limits assumed)
T1 construct: also called E1/E2 in complex; recombinant E1/E2 antigen
T1 sequence (P26664 192-383 limits assumed, chain 1 of 2): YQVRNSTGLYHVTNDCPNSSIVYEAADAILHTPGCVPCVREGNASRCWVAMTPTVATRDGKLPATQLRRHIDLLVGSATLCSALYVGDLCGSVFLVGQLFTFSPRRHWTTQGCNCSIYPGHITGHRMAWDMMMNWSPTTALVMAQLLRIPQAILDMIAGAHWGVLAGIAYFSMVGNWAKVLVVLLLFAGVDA
T1 sequence (P26664 384-746 limits assumed, chain 2 of 2): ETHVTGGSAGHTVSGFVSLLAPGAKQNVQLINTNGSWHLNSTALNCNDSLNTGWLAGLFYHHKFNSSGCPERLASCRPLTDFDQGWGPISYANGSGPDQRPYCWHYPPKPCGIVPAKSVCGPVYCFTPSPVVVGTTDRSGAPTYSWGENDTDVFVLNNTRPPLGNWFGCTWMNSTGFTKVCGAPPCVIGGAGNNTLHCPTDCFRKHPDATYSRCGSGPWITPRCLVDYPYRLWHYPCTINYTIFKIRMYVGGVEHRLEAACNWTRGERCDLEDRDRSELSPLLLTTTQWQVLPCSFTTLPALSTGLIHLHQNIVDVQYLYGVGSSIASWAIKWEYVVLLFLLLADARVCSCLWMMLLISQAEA
Assay: ELISA, E1/E2 heterodimer coated; crude periplasmic Fab
Reported property: OD405 nm (OD405 nm)

INSERT INTO results (binder, unit_of_measurement, result) VALUES
  ('Fab clone 2a-30 (Fab, V domains shown, Human Fab (gamma1 Fd + kappa), crude periplasmic preparation, approx. 0.96 ug Fab/ml) VH: VQLLEQSGGGLVQPGGSLRLSCTASGFTLTDYSMDWVRQAPGKGPEWVGRSRNKANIYTTEYAASVKGRFVISRDDSENSVYLQMNNVKMDDTAVYYCARGEGIFYGSGSLDLWGQGAVVTVSS VL: AELTQSPSSLSASVGDRVTITCRSSQSISNSLHWFQQEPGKAPKLLIYAASTLQSGVPSRFSGSGSGTDFTLIITGLQPEDFATYYCQQSPRTPLTFGGGTKVEIR', 'OD405 nm', 0.52),
  ('Fab clone 2a-40 (Fab, V domains shown, Human Fab (gamma1 Fd + kappa), crude periplasmic preparation, approx. 1.0 ug Fab/ml) VH: VQLLEQSGGGLVKPGGSLRLSCTASGFTFSGFTFSDHYMSWIRQAPGKGLELVSYIISNGYTNYPDSVKGRFTVSRDNARKSLYLQMNSLRVEDTAIYYCARGLSPSIAGDGFDIWGQGTMVTVSS VL: AELTQSPAFMSATPGDKVNISCKASQDIDDDMNWYQQKPGEAAIFIIQEATTLVPGIPPRFSGSGYGTDFTLTINNIESEDAAYYFCLQHDNFPLTFGQGTKVEIK', 'OD405 nm', 0.17),
  ('Fab clone 6a:5 (Fab, V domains shown, Tested as a human Fab (gamma1 Fd + kappa), crude periplasmic preparation, approx. 0.33 ug Fab/ml) VH: EVQLLESGPGLVKPSQTLSLTCAISGDNVSRKSAAWNWIRQSPSRGLEWLGRTYHMSKWYSVYATSLKSRININVDTSRNQFALQLRSVTPEDTAVYYCAREGPEWAVGGTYGMDVWGQGTTVTVSS VL: AELTQSPDTLSLSPGERATLSCRASQSVNNNYLAWYQQKPGQAPRLLIYGASSRATGIPDRFSGSGSETDFTLTISRLEPEDFAVYYCQQYDSSRTFGQGTKVEIK', 'OD405 nm', 0.09),
  ('Fab clone 2a-5 (Fab, V domains shown, Human Fab (gamma1 Fd + kappa), crude periplasmic preparation, approx. 0.44 ug Fab/ml) VH: EVQLLESGPGLVKPSETLSLTCTVSTGSISGYFWSWIRQPPGKGLEWIAYIHNSGNTNYNPSLRSRVTVSIDTSKNQFSLKLTSVTAADTAVYYCARDGGGWDTYLDSWGQGFLVTVSS VL: AELTQSPSSLSASVGDRVTITCRASQTVSSYLNWYQQKPGKAPKVLIYGISTLQSGVPSRFSGSGSETDFTLTISNLQPEDFAIYYCQQSYSSRTFGQGTKVEIK', 'OD405 nm', 0.08),
  ('Fab clone 2b-5 (Fab, V domains shown, Human Fab (gamma1 Fd + kappa), crude periplasmic preparation, approx. >1.0 ug Fab/ml) VH: EVQLLESGGGVVQPGRSLRLSCAASGFTLSTYAMHWVRQAPGRGLEWVAVISYDGDHKFYADSMKGRFAISRDTSTNTLYLEVNSLKIEDTAVYYCARDRDRRGGYVFSTTGGLDSWGQGTLVTVSS VL: AELTQSPLSLAVTPGEPASISCRTSQSLLHSNGYTYLDWYLQKPGQSPQLLIYLASNRASGVPDRFSGSGSGTDFTLEISRVEAEDVGVYYCMQPLQTPVTFGQGTKVEVK', 'OD405 nm', 1.4);
